Taken from PubChem BioAssay.

target: Voltage-gated potassium channel subunit beta-2 (Rattus norvegicus) (UniProt P62483); experiment: inhibitors of rat Kvbeta2 reductase activity – biochemical, NADPH fluorescence, primary screen (AID 622); conditions: recombinant KvBeta, 4-cyanobenzaldehyde reduction, at 10 µM, stronger effect = higher value;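 note: slope of raw intensity against log time taken from 70 to 1610 s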
Sequence (P62483 whole entry, looked up): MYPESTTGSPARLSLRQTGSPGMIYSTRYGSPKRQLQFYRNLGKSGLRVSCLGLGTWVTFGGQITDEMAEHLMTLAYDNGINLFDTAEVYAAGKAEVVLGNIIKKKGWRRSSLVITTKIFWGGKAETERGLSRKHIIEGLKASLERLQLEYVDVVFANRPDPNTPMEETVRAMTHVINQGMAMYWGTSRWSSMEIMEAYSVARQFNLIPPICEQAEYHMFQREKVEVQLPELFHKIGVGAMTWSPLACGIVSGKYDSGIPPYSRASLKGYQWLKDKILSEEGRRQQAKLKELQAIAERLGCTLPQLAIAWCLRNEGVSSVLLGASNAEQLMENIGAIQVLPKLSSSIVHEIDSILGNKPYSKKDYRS
Please use condition met whenever fluorescence slope is not below -0.5, and condition not met whenever it is.

> print(dat)
                                    compound                               measured.on        label.value
 1  CC(C)c1ccc(C(O)c2cnc(C(C)C)n2C)cc1 (stereo unspecified)  Voltage-gated potassium channel subunit beta-2 (Rattus norvegicus) (UniProt P62483)  condition not met
 2  O=C(O)CSC1CC(=O)N(c2ccc(Cl)c(Cl)c2)C1=O (stereo unspecified)  Voltage-gated potassium channel subunit beta-2 (Rattus norvegicus) (UniProt P62483)      condition met
 3  COc1ccc(-c2noc(C3CCCN(C(=O)CCc4ccccc4)C3)n2)cc1 (stereo unspecified)  Voltage-gated potassium channel subunit beta-2 (Rattus norvegicus) (UniProt P62483)      condition met
 4  COc1ccc(NC(=O)c2oc3ccc(S(=O)(=O)N4CCC5(CC4)OCCO5)cc3c2C)cc1  Voltage-gated potassium channel subunit beta-2 (Rattus norvegicus) (UniProt P62483)      condition met
 5  COc1ccc(-c2nnc(SCC(=O)Nc3cc(C)on3)n2C)cc1OC  Voltage-gated potassium channel subunit beta-2 (Rattus norvegicus) (UniProt P62483)      condition met
 6  CCc1nn(CC(=O)NCCCN2CCc3ccccc3C2)c(=O)c2cc3sccc3n12  Voltage-gated potassium channel subunit beta-2 (Rattus norvegicus) (UniProt P62483)  condition not met
 7  O=S(=O)(NCCCCCNS(=O)(=O)c1ccccc1)c1ccccc1  Voltage-gated potassium channel subunit beta-2 (Rattus norvegicus) (UniProt P62483)  condition not met
 8    CCS(=O)(=O)c1nc2ccccc2n1CC(=O)N1CCCCC1  Voltage-gated potassium channel subunit beta-2 (Rattus norvegicus) (UniProt P62483)      condition met
 9  CCN(CCNC(=O)C1CCN(S(=O)(=O)c2cccc3cccnc23)CC1)c1ccccc1  Voltage-gated potassium channel subunit beta-2 (Rattus norvegicus) (UniProt P62483)  condition not met
10  CC(C)(C)C(=O)OCC1OC(n2cnc(C(N)=O)n2)C(O)C1O (stereo unspecified)  Voltage-gated potassium channel subunit beta-2 (Rattus norvegicus) (UniProt P62483)      condition met

----------
molecular target: Voltage-gated potassium channel subunit beta-2 (Rattus norvegicus) (UniProt P62483); assay: enhancers of rat Kvbeta2 NADPH turnover – biochemical, NADPH fluorescence, primary screen (AID 623); details: Recombinant KvBeta, NADPH fluorescence decrease slope, 10 min; at 10 µM; stronger effect = lower value;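 note: fluorescence intensity change per second fitted from 20 to 320 s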
NADPH fluorescence slope by entry:
Test Readout: NADPH fluorescence slope

> print(dat)
                                    compound              test.readout  quantitative.result
 1                  Cc1ccc(C)n1NC(=O)c1ccco1  NADPH fluorescence slope             -1.3e-05
 2  CCCn1c2ccccc2c2nnc(SCC(=O)Nc3ncccn3)nc21  NADPH fluorescence slope             -1.7e-05
 3  COc1cccc(NC(=O)CSc2nnc(Cc3cccn3C)n2-c2ccc(F)cc2)c1  NADPH fluorescence slope             -2.4e-05
 4  O=C(Nc1ccc(S(=O)(=O)N2CCCCCC2)cc1)c1ccco1  NADPH fluorescence slope             -6.7e-05
 5  CCOC(=O)c1cnc(-n2nc(C)cc2C)nc1N1CC(C)OC(C)C1 (stereo not drawn)  NADPH fluorescence slope             -3.9e-05
 6       CCN(CC(=O)O)S(=O)(=O)c1cc(Cl)ccc1Cl  NADPH fluorescence slope             -2.7e-05
 7  COc1ccc(-c2nnc(SC(C)C(=O)Nc3nccs3)n2-c2ccccc2)cc1OC (stereo not drawn)  NADPH fluorescence slope              2.4e-05
 8  CCCC1C(C#N)=C(N)Oc2n[nH]c(C(C)(C)C)c21 (stereo not drawn)  NADPH fluorescence slope             -3.1e-05
 9  CC(c1ccco1)N(C(=O)c1ccc(S(=O)(=O)N2CCCCC2)cc1)c1ccccn1 (stereo not drawn)  NADPH fluorescence slope            -0.000211
10                 O=S(=O)(NC1=NCCC1)c1cccs1  NADPH fluorescence slope             -4.6e-05
11            Cc1nc2c3cnn(-c4ccccc4)c3ncn2n1  NADPH fluorescence slope              8.7e-05
12         CNC(=O)CSc1nnc(-c2cc(C)cc(C)c2)o1  NADPH fluorescence slope             -3.9e-05
13  Cc1nc(Nc2nc(=O)c3ccccc3n2C)nc2c(C)cccc12  NADPH fluorescence slope               -5e-06
14  NC(=O)C1CCN(c2nc(-c3ccccc3)nc3ccccc23)CC1  NADPH fluorescence slope             -6.1e-05
15  COc1ccc(N2CCN(C(=O)CSc3ncnc4c3cnn4-c3ccccc3C)CC2)cc1  NADPH fluorescence slope             -3.3e-06
16  COc1ccc(CN2C(=O)c3ccccc3C2C(=O)NC2CCCC2)c(OC)c1 (stereo not drawn)  NADPH fluorescence slope             -4.9e-05
17  CCOC(=O)c1cc(-c2nnc(-c3ccc(Oc4ccccc4)cc3)o2)c(C)nc1C  NADPH fluorescence slope             -2.6e-05
18      CN(C)C(=O)CN(C)S(=O)(=O)c1ccc(Cl)cc1  NADPH fluorescence slope             -1.2e-05
19  COc1ccc(C(=O)OC(COc2ccccc2)Cn2ccnc2)cc1 (stereo not drawn)  NADPH fluorescence slope              6.7e-06
20       CCOc1nc2ccccc2nc1NS(=O)(=O)c1ccccc1  NADPH fluorescence slope            -0.000234
21  CCC(C)OC(=O)c1[nH]c2c(c1C)C(=O)CC(c1ccc(N(C)C)cc1)C2 (stereo not drawn)  NADPH fluorescence slope             -3.4e-06
22  COc1cc(CNc2ccc(N3CCOCC3)c(C(=O)O)c2)ccc1OCC(N)=O  NADPH fluorescence slope             0.000117
23  CC(C)(C)n1ncc2c(=O)n(CC(=O)NCc3ccccc3)cnc21  NADPH fluorescence slope             -1.3e-05
